B1: Syntaxin-binding protein 4, residues 493 to 538; numbered along this chain, Q6ZWJ1 (parent)
chain: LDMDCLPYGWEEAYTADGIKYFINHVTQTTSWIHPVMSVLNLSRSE

variants of: B1; assay: abundance fitness (aPCA) (normalised: wild type 0, dead -1); higher = more abundant; growth selection in yeast, the domain comes from the species named; conditions: Homo sapiens
// values below are reported abundance fitness
API note: the answer field is a bare number with no unit suffix.

Query (variant): `D2V` ; field requested: abundance fitness
-0.576

`E11M` ?
-0.793

`R44A` ?
-0.134

`K20Q` ?
-0.897

`T15G` ?
-0.561
